In this section we review reported pIC50 values for a set of molecules.
Target: His-tagged KRAS G12D protein (Homo sapiens, UniProt P01116, G12D)
Sequence (P01116 1-188 isoform P01116-2 G12D): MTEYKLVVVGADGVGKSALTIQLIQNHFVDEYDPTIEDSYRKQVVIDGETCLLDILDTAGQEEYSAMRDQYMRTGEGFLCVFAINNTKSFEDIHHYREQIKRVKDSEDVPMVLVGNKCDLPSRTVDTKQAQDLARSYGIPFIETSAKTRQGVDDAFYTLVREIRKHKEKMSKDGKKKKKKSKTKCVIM
Assay: KRAS G12D TR-FRET Assay
# pIC50 = -log10(concentration in molar units)

These solved cases illustrate the format of a correct answer.
{"molecule": "CCc1c(F)ccc2cc(O)cc(-c3ccc4c(N5CCOCC(C)(O)C5)nc(OC[C@@]56CCCN5C[C@H](F)C6)nc4c3F)c12 (single isomer, unassigned)", "pIC50": 9.00}
{"molecule": "CCc1c(F)ccc2cc(O)cc(-c3c(F)cc4c(N5CCC[C@]6(CCS(=O)(=O)C6)C5)nc(OC[C@@]56CCCN5C[C@H](F)C6)nc4c3F)c12 (single isomer, unassigned)", "pIC50": 8.40}
{"molecule": "CCc1c(F)ccc2cc(O)cc(-c3c(F)cc4c(N5CCCC6(CNC(=O)O6)C5)nc(OC[C@@]56CCCN5C[C@H](F)C6)nc4c3F)c12 (single isomer, unassigned) [Example 58]", "pIC50": 9.00}
{"molecule": "CCc1c(F)ccc2cc(O)cc(-c3ccc4c(N5CCC[C@@]6(CNC(=O)O6)C5)nc(OC[C@@]56CCCN5C[C@H](F)C6)nc4c3F)c12 (single isomer, unassigned)", "pIC50": 8.15}
{"molecule": "CCc1c(F)ccc2cc(O)cc(-c3c(O)cc4c(N5CCC[C@@](C)(O)C5)nc(OC[C@@]56CCCN5C[C@H](F)C6)nc4c3F)c12 (single isomer, unassigned) [Example 27]", "pIC50": 9.00}

Lab request: please report pIC50 under test system His-tagged KRAS G12D protein (Homo sapiens, UniProt P01116, G12D) for O=C1NCC2(CCCN(c3nc(OC[C@@]45CCCN4C[C@H](F)C5)nc4c(F)c(-c5cc(O)cc(Cl)c5C5CC5)ccc34)C2)O1 (some centres unmarked) 8.00

Lab request: please report pIC50 under test system His-tagged KRAS G12D protein (Homo sapiens, UniProt P01116, G12D) for CCc1c(F)ccc2cc(O)cc(-c3c(F)cc4c(N5CCC[C@@](C)(O)C5)nc(OC[C@@]56CCCN5C[C@H](F)C6)nc4c3F)c12 (atropisomer, axis not shown) [Example 3] 6.90

Lab request: please report pIC50 under test system His-tagged KRAS G12D protein (Homo sapiens, UniProt P01116, G12D) for CCc1c(F)ccc2cc(O)cc(-c3ccc4c(N5CCC[C@]6(C5)C[C@@H](O)C6)nc(OC[C@@]56CCCN5C[C@H](F)C6)nc4c3F)c12 8.30

Lab request: please report pIC50 under test system His-tagged KRAS G12D protein (Homo sapiens, UniProt P01116, G12D) for C[C@@]1(O)COCCN(c2nc(OC[C@@]34CCCN3C[C@H](F)C4)nc3c(F)c(-c4cc(O)cc5ccc(F)c(Cl)c45)c(F)cc23)C1 (single isomer, unassigned) 8.30

Lab request: please report pIC50 under test system His-tagged KRAS G12D protein (Homo sapiens, UniProt P01116, G12D) for CCc1c(F)ccc2cc(O)cc(-c3c(F)cc4c(N5CCCC(O)(C(F)F)C5)nc(OC[C@@]56CCCN5C[C@H](F)C6)nc4c3F)c12 (single isomer, unassigned) [Example 21] 7.40

Lab request: please report pIC50 under test system His-tagged KRAS G12D protein (Homo sapiens, UniProt P01116, G12D) for CCc1cccc2cc(O)cc(-c3c(F)cc4c(N5CCC[C@]6(CCO6)C5)nc(OC[C@@]56CCCN5C[C@H](F)C6)nc4c3F)c12 8.22
